B1: Azoarcus group I ribozyme (parent)
chain: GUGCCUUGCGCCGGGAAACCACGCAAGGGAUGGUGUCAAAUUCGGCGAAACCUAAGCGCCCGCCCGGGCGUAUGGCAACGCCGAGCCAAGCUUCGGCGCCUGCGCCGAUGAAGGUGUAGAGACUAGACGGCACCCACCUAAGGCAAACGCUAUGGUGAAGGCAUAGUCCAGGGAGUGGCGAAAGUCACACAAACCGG

- Variants of: B1
- Assay explanation: reverse-splicing fitness (ratio to wild type); higher = more active; in vitro selection; Mg2+ level not given
Parameter: reverse-splicing fitness
Respond using a number only.

Examples from the recorded data:
>  <Variant>
C82U A120C A145C C150A U176G

>  <Assay result>
0.00472

$$$$
>  <Variant>
C82A A120C A145C C150G

>  <Assay result>
0.0192

$$$$
>  <Variant>
A111U A120U A145U C169A U176G

>  <Assay result>
0.00231

$$$$

Prompt: If you can, please state the reported reverse-splicing fitness value of C82U A111G A120G A145U C150U C169G U176C .
Response: 0.0132

Prompt: What do we get for A111G A120C A145C C150U C169U ?
Response: 0.0786

Prompt: What do we get for A111U A120C A145C C150A C169G U176G ?
Response: 0.00536

Prompt: What do we get for C82U A111C A120G A145U C150U C169U U176C ?
Response: 0.0107

Prompt: What do we get for C82G A120G C150U C169A U176G ?
Response: 0.00527

Prompt: What do we get for C82A A111G A120C A145C C150U C169G U176C ?
Response: 0.0213

Prompt: What do we get for A111G A145G C169U U176C ?
Response: 0.0655

Prompt: What do we get for C82G A120C A145C C150G C169U ?
Response: 0.0101

Prompt: What do we get for C82G A111C A120U A145C C150A ?
Response: 0.00458

Prompt: What do we get for C82G A111U A120C A145C C150G C169G U176A ?
Response: 0.0106

Prompt: What do we get for A111G A120G A145C C150A C169A ?
Response: 0.0124

Prompt: What do we get for C82U A111G A120G C150U C169G ?
Response: 0.0104

Prompt: What do we get for C82G A111U A120U C169U ?
Response: 0.00476

Prompt: What do we get for C82A A111G A120G A145G C150G C169G U176C ?
Response: 0.0114

Prompt: What do we get for C82A A111U C150A C169U U176C ?
Response: 0.0171

Prompt: What do we get for C82A A120C C150G C169A U176A ?
Response: 0.0126

Prompt: What do we get for C82G A145U U176G ?
Response: 0.175

Prompt: What do we get for C82U A111C A120C C150A C169U U176A ?
Response: 0.0178

Prompt: What do we get for C82G A111U A120G A145U C150A U176A ?
Response: 0.0108
